Where do these numbers come from? They come from PubChem BioAssay AID1918955.

- Tested on: NCI/ADR-RES complex spheroid viability
- assay info: Anticancer human tumor NCI/ADR-RES cell line growth inhibition;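 further: spheroids exposed to compounds for 7 days; 100% = DMSO vehicle treated spheroids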
- measurement setup: second compound 10 µM; first compound 0.01 µM; stronger effect = lower value
viability, T/C values by entry

Lab note: CC[C@@]1(O)C(=O)OCc2c1cc1n(c2=O)Cc2cc3c(CN(C)C)c(O)ccc3nc2-1 + NC1CCC(NC2CC2c2ccccc2)CC1 gave viability, T/C of 32%

// viability, T/C value for CC(C)CC(NC(=O)C(Cc1ccccc1)NC(=O)c1cnccn1)B(O)O (configuration not stated) + NC1CCC(NC2CC2c2ccccc2)CC1 : 31.4%

###

- Tested on: NCI/ADR-RES complex spheroid viability
- assay info: Anticancer human tumor NCI/ADR-RES cell line growth inhibition; active = viability on the fitted dose curve at most 10% of control; inactive = the rest;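 further: spheroids exposed to compounds for 7 days; 100% = DMSO vehicle treated spheroids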
- measurement setup: second compound 0.316 µM; first compound 0.0316 µM
- Text: Multicellular complex tumor spheroid response to LSD1 Inhibitor Iadademstat in combination with a variety of drugs and investigational agents in selected tumor cell lines The current study was undertaken to assess response to LSD1 inhibitors in combination with standard-of-care drugs and investigational agents in solid tumor complex spheroid models as well as in the K-562 leukemia. […] Compounds. […] If the clinical Cmax for an agent had not been determined, the highest concentration tested was 10 microM. […]
Just give me one of these, please: 1 = active, 0 = inactive

These solved cases illustrate the format of a correct answer.
COc1cc(Nc2ncc3c(n2)-c2ccc(Cl)cc2C(c2c(F)cccc2OC)=NC3)ccc1C(=O)O + NC1CCC(NC2CC2c2ccccc2)CC1	0
COc1ccc([C@@H](O)c2cc(-c3ncnc4cc(N5CCOCC5)ccc34)c(F)cc2Cl)nn1 + NC1CCC(NC2CC2c2ccccc2)CC1	0
CC1COCCN1c1cc(-c2ccnn2C)c2ccnc(-c3ccn[nH]3)c2n1 (stereo unspecified) + NC1CC1c1ccc(-c2cccc(O)c2)cc1	0

Next item in the queue.
Please indicate how the test categorized CC(C)CC(NC(=O)CNC(=O)c1cc(Cl)ccc1Cl)B1OC(=O)CC(CC(=O)O)(C(=O)O)O1 (stereo unspecified) + NC1CCC(NC2CC2c2ccccc2)CC1 .
0

###

- System: NCI/ADR-RES complex spheroid viability
- assay info: Anticancer human tumor NCI/ADR-RES cell line growth inhibition;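 further: spheroids exposed to compounds for 7 days; 100% = DMSO vehicle treated spheroids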
- measurement setup: second compound 10 µM; first compound 0.000949 µM; stronger effect = lower value
Hi! Could you tag entries with viability, T/C below 4% as condition met, and those at or above as condition not met? Much appreciated.

Recorded results for 3 compounds are shown here.
Nc1ncn(C2CC(O)C(CO)S2)c(=O)n1 (stereo unspecified) + NC1CC1c1ccc(-c2cccc(O)c2)cc1	condition not met
CCc1c2c(nc3ccc(O)cc13)-c1cc3c(c(=O)n1C2)COC(=O)[C@]3(O)CC + NC1CC1c1ccc(-c2cccc(O)c2)cc1	condition not met
Nc1ccn(C2OC(CO)C(O)C2(F)F)c(=O)n1 (stereo unspecified) + NC1CCC(NC2CC2c2ccccc2)CC1	condition met

Lab note: confirm whether the reported viability, T/C for this compound is below 4%, equality not counting. compound: Nc1ccn(C2OC(CO)C(O)C2(F)F)c(=O)n1 (stereo unspecified) + NC1CC1c1ccc(-c2cccc(O)c2)cc1
condition met

Say whether its viability, T/C is strictly beneath 4%. Entry: Nc1ncn(C2CC(O)C(CO)S2)c(=O)n1 (stereo unspecified) + NC1CCC(NC2CC2c2ccccc2)CC1
condition not met
